# credit: patent US20220340682A1

- systemTested: T1, cCEACAM5, M. fascicularis CEACAM5 ECD (35-688) (Macaca fascicularis)
- T1 construct: ECD followed by a 24 amino acid extension containing a His-Tag; also called cynomolgus CEACAM5; monkey CEACAM5
- T1 chain: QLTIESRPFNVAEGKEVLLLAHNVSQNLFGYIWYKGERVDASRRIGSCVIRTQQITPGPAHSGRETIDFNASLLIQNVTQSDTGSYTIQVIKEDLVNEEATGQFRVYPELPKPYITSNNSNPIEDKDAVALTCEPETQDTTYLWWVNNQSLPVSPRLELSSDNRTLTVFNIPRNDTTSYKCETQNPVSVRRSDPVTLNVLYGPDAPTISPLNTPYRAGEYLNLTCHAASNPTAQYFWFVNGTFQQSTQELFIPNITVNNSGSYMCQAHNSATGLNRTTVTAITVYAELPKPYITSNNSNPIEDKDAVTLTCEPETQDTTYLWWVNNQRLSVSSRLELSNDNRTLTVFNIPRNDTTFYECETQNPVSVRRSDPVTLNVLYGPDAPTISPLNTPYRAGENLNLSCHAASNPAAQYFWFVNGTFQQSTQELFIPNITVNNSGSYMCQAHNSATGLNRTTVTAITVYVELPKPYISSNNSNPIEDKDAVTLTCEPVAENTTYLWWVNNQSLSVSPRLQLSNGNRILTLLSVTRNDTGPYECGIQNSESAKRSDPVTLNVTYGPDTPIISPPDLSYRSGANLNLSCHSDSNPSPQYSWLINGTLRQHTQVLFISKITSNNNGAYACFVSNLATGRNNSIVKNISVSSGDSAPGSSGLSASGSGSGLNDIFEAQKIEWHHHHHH
- protocolText: ELISA
pEC50: −log10 of the molar value.
In this section we review reported pEC50 values for a set of binders.
reportedMetric: pEC50

binder: huMAb2-2 (antibody, V domains shown, Humanized MAb2 (VL1a + VH1a) fused to human IgG1 and human Ckappa constant domains; also called MAb2_VL1aVH1a-IgG1; MA2_VL1aVH1a-IgG1) VH: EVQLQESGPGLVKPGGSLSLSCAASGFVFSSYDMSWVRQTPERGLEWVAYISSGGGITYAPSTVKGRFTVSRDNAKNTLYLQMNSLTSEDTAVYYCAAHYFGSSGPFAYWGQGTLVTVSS VL: DIQMTQSPASLSASVGDRVTITCRASENIFSYLAWYQQKPGKSPKLLVYNTKTLAEGVPSRFSGSGSGTDFSLTISSLQPEDFATYYCQHHYGTPFTFGSGTKLEIK
experimentalResult: 9.77
//
binder: huMAb2-1 (antibody, V domains shown, Humanized MAb2 (VL1 + VH1) fused to human IgG1 and human Ckappa constant domains; also called MAb2_VL1VH1-IgG1; MAb2VL1VH1-IgG1) VH: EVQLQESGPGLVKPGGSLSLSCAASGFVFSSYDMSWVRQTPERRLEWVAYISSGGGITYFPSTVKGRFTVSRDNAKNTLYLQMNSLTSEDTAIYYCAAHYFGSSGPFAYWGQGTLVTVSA VL: DIQMTQSPASLSASVGDTVTITCRASENIFSYLAWYQQKPGKSPKLLVYNTKTLAEGVPSRFSGSGSGTQFSLTISSLQPEDFGSYYCQHHYGTPFTFGSGTKLEIK
experimentalResult: 9.70
//
binder: huMAb2-4 (antibody, human IgG1, kappa, V domains shown, Humanized MAb2, human IgG1 / Ckappa; also called MAb2_VL1d VH1-IgG1; MAb2_VL1dVH1-IgG1) VH: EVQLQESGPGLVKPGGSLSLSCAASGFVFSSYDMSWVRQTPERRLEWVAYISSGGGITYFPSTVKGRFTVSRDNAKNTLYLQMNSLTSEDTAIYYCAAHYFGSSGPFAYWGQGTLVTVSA VL: DIQMTQSPASLSASVGDTVTITCRASENIFSYLAWYQQKPGKSPKLLVYNTRTLAEGVPSRFSGSGSGTQFSLTISSLQPEDFGSYYCQHHYGTPFTFGSGTKLEIKR
experimentalResult: 9.77
//
binder: huMAb2-3 (antibody, human IgG1, kappa, V domains shown, Humanized MAb2, human IgG1 / Ckappa; also called MAb2_VL1cVH1a-IgG1) VH: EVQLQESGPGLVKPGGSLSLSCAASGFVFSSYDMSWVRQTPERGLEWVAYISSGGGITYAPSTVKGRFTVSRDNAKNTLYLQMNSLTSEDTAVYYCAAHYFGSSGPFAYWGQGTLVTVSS VL: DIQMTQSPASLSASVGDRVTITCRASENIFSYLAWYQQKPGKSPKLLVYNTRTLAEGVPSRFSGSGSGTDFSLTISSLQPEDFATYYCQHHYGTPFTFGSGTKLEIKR
experimentalResult: 9.72
//
binder: chMAb2 (antibody, human IgG1, kappa, V domains shown, Chimeric, human IgG1, Ck isotype; also called MAb2-IgG1; chimeric MAb2) VH: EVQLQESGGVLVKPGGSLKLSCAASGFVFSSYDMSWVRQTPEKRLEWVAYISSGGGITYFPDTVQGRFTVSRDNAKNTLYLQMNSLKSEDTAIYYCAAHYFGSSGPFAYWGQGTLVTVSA VL: DIQMTQSPASLSASVGETVTITCRASENIFSYLAWYQQKQGKSPQLLVYNTKTLAEGVPSRFSGSGSGTQFSLKINSLQPEDFGSYYCQHHYGTPFTFGSGTKLEIKR
experimentalResult: 9.77
